Tested on: .221A2.1 peptide-loaded target cells and cells expressing endogenous antigen
Assay: Primary in vitro CTL induction with peptide-pulsed DC, CTL lytic activity by 51Cr release
Type: cell-based, human
Conditions: immunogenicity, CTL recognition of the peptide, positive/tested
Recorded A2 peptide, one value per entry.

{"compound": "CSCC[C@H](NC(=O)[C@H](CC(C)C)NC(=O)[C@H](CCC(N)=O)NC(=O)[C@H](CC(=O)O)NC(=O)[C@H](CC(N)=O)NC(=O)[C@H](CCSC)NC(=O)[C@H](CCSC)NC(=O)[C@@H](N)CCCNC(=N)N)C(=O)N[C@@H](Cc1ccccc1)C(=O)N[C@@H](CC(C)C)C(=O)O [Peptide 1126.06]", "A2 peptide": "1/1"}
{"compound": "CSCC[C@H](NC(=O)[C@H](CC(=O)O)NC(=O)[C@H](CC(N)=O)NC(=O)[C@H](CO)NC(=O)[C@H](CC(C)C)NC(=O)[C@H](CC(C)C)NC(=O)[C@H](Cc1c[nH]cn1)NC(=O)[C@H](CC(C)C)NC(=O)[C@@H](N)CO)C(=O)N[C@@H](CS)C(=O)N[C@@H](C)C(=O)O [Peptide 1419.14]", "A2 peptide": "1/3"}
{"compound": "CC[C@H](C)[C@H](NC(=O)[C@H](Cc1ccc(O)cc1)NC(=O)[C@H](C)NC(=O)[C@@H](NC(=O)CNC(=O)[C@H](CCCNC(=N)N)NC(=O)[C@H](CCC(=O)O)NC(=O)[C@H](CCC(N)=O)NC(=O)[C@H](CC(C)C)NC(=O)[C@@H](N)CC(C)C)C(C)C)C(=O)O [Peptide 1129.01]", "A2 peptide": "3/3"}
{"compound": "CC(C)C[C@H](NC(=O)[C@H](C)N)C(=O)NCC(=O)N[C@H](C(=O)N[C@H](C(=O)N[C@@H](CS)C(=O)N[C@@H](Cc1ccc(O)cc1)C(=O)N[C@H](C(=O)O)C(C)C)[C@@H](C)O)[C@@H](C)O [Peptide 1389.14]", "A2 peptide": "2/3"}
{"compound": "CC(C)C[C@H](NC(=O)[C@H](C)N)C(=O)N[C@@H](Cc1ccccc1)C(=O)N1CCC[C@H]1C(=O)N1CCC[C@H]1C(=O)N[C@@H](CCC(=O)O)C(=O)NCC(=O)N[C@H](C(=O)N[C@@H](CO)C(=O)N[C@H](C(=O)O)C(C)C)C(C)C [Peptide 1419.61]", "A2 peptide": "1/3"}
{"compound": "CC(C)C[C@H](NC(=O)[C@@H]1CCCN1)C(=O)N[C@H](C(=O)N[C@@H](CS)C(=O)N[C@@H](CC(N)=O)C(=O)NCC(=O)N[C@H](C(=O)N[C@@H](CC(C)C)C(=O)N[C@@H](CCC(N)=O)C(=O)NCC(=O)N[C@H](C(=O)O)C(C)C)C(C)C)C(C)C [Peptide 1419.17]", "A2 peptide": "2/2"}
{"compound": "CC(C)C[C@H](NC(=O)[C@H](CO)NC(=O)[C@H](CCCNC(=N)N)NC(=O)[C@@H]1CCCN1C(=O)[C@H](CCCNC(=N)N)NC(=O)[C@H](CC(C)C)NC(=O)[C@@H](N)Cc1ccccc1)C(=O)N[C@@H](CCC(N)=O)C(=O)N[C@@H](CS)C(=O)N[C@H](C(=O)O)C(C)C [Peptide 1419.07]", "A2 peptide": "1/3"}
